System: CEM cells HIV-1 protection, formazan growth assay
experimental protocol: NCI AIDS Antiviral Assay
condition description: measured here: growth of uninfected CEM cells
recorded metric: IC50

Use the examples below as a reference point.
OCCN(CCO)c1nc(N(CCO)CCO)nc(N(CCO)CCO)n1    > 200 µM
Cc1nc(Nc2ccc(Cl)cc2)sc1C(=O)NNC(=S)NN    33.1 µM
COc1cccc(CCNC(=O)Cc2ccccc2CCO)c1    > 200 µM
O=C1CC2(CCC(O)(c3cccc4ccccc34)C(C(=O)c3cccc4ccccc34)C2)C(=O)c2ccccc2N1 (stereo unspecified)    110 µM
Cc1cccc(C)c1NC(=O)CCCC(=O)C1/C(=N/NC(=O)CC#N)CCC/C1=N\NC(=O)CC#N (stereo unspecified)    > 72.4 µM

Please give the measured IC50 for this compound: O=S(c1ccc(Cl)cc1)c1ccccc1C1=NCCN1 (stereo unspecified)
> 200 µM

Please give the measured IC50 for this compound: CC(C)(Cc1ccccc1)C(=C=C=C=C(c1ccccc1)C(C)(C)Cc1ccccc1)c1ccccc1
> 46.8 µM

Please give the measured IC50 for this compound: O=C(NCCCl)Nc1ccc(S(=O)(=O)c2ccc([N+](=O)[O-])cc2)cc1
16.2 µM

Please give the measured IC50 for this compound: O=C1/C(=N\N(C(=O)c2ccccc2)c2ccccc2)c2cccc3cccc1c23
> 3.8 µM

Please give the measured IC50 for this compound: COC(=O)[C@@H]1CC2(CCOCc3ccccc3)C=CCN3CC[C@@]1(c1ccccc1NC(=O)C(C)(C)C)C32 (stereo partly specified)
> 126 µM

---

pIC50 values for the compounds below.
System: CEM cells HIV-1 protection, formazan growth assay
experimental protocol: NCI AIDS Antiviral Assay
condition description: measured here: growth of uninfected CEM cells
pIC50: −log10 of the molar value. Where a SMILES comes first, the peptide text is derived from it. [ ]: non-standard residue; d: D form. Hpg = N[CH](C(=O)O)c1ccc(O)cc1

CC(C)CC(N)C(=O)NC(C(N)=O)c1ccc(O)cc1 (stereo unspecified) (H-Leu-[Hpg]-NH2; configuration not given here)    < 3.70
O=C1CCC(c2ccccc2)C(O)(C(=O)O)C1 (stereo unspecified)    < 3.41
CC(C)OP(=O)(OC(C)C)/C(Cl)=N/Nc1ccc([N+](=O)[O-])cc1    < 4.15
Cc1nc(-c2nc(C)c(C(=O)/C=C/c3ccc([N+](=O)[O-])cc3)s2)sc1C(=O)/C=C/c1ccc([N+](=O)[O-])cc1    < 4.32
NC(=O)c1ncn2c1CNC(=O)C2    < 3.70

From here, focus on the item given below.
Please give the measured pIC50 for this compound: CC1=C(c2cc(C(=O)Nc3cccc(C(F)(F)F)c3)ncn2)Sc2ccccc2N1
< 4.08

---

Test system: CEM cells HIV-1 protection, formazan growth assay
experimental protocol: NCI AIDS Antiviral Assay;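 active means compounds giving half or more protection of infected cells from virus-caused growth loss, again on retest; inactive means the rest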
Output constraint: value belongs to class 1 (active), class 0 (inactive)

COC1=CC23C=CC1[C@@H](c1ccccc1)C2=C(C)C(=O)N3C(=O)NC1CCCCC1 (some centres undefined)    class 0

Returns: the outcome recorded for COC(=O)C1=CON2C3CC4CC(C3)CC(C4)C12C (centres undefined) in this assay.
class 0

Returns: the outcome recorded for CN1C(=O)CC2CCC(=O)N2c2cccnc21 (centres undefined) in this assay.
class 0

---

log10 IC50 values for the compounds below.
System: CEM cells HIV-1 protection, formazan growth assay
experimental protocol: NCI AIDS Antiviral Assay
condition description: measured here: growth of uninfected CEM cells
Form field - Quantity: IC50; Unit: µM; Scale: log10

Use the examples below as a reference point.
CC(=O)Nc1ccc(SS(=O)(=O)c2ccc(NC(C)=O)cc2)cc1    2.31
OCCOCCO[P+]1(OCCOCCO)n2c3ccc2C(c2ccccc2)=C2C=CC(=N2)C(c2ccccc2)=c2ccc(n21)=C(c1ccccc1)C1=NC(=C3c2ccccc2)C=C1    -1.10
O=C(Nc1cccc(-c2nc3ccccc3[nH]2)c1)c1ccc(C(=O)Nc2cccc(-c3nc4ccccc4[nH]3)c2)cc1    1.96
CCC(C)(C)c1ccc(OP(=S)(S)Oc2ccc(C(C)(C)CC)cc2)cc1    1.57
CCOP(=O)(OCC)/C(C#N)=C/c1ccc(C(F)(F)F)cc1    1.76

Please give the measured log10 IC50 for this compound: Cc1cc(Br)c2nsnc2c1[N+](=O)[O-]
0.41

Please give the measured log10 IC50 for this compound: CCOC(=O)c1c[nH]cc1-c1cn(S(=O)(=O)c2ccccc2)cc1C
1.70

Please give the measured log10 IC50 for this compound: C=C(C)CCC1CC=[N+]([O-])OC1C(C)(C)C (stereo unspecified)
1.46

---

System: CEM cells HIV-1 protection, formazan growth assay
experimental protocol: NCI AIDS Antiviral Assay;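 active = compounds giving half or more protection of infected cells from virus-caused growth loss, again on retest; inactive = the rest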
Procedure: The ability of compounds to protect human CEM cells from HIV-1 infection is measured as a screen for new compounds capable of inhibiting the HIV virus. Five concentrations of drug were tested on uninfected and infected cells and cell growth was measured using a soluble formazan assay. […] Compounds that provided at least 50% protection were retested. Compounds that provided at least 50% protection on retest were listed as moderately active. […]
Output constraint: value belongs to active, inactive

See these solved cases before continuing.
COc1cc(OC)cc(-n2c(N)c(-c3nc4ccccc4n3C)c3ccc([N+](=O)[O-])cc3c2=O)c1    inactive
COc1cc(C(C)(C)C)c(OC(=O)/C=C/C(=O)O/C=C/[N+](=O)[O-])c(C(C)(C)C)c1    inactive
COC1=CC(=O)[C@]2(C)[C@H](C1=O)C(C)[C@H]2c1ccccc1 (stereo partly specified)    inactive
Cc1cc(N(CCC#N)CCC#N)ccc1/C=C1/CN(N2C(=O)/C(=C/c3ccc(N(CCC#N)CCC#N)cc3C)N=C2c2ccccc2)C(c2ccccc2)=N1    inactive
O=C1Cc2c(-c3ccccc3)cc(-c3ccc(Cl)cc3)nc2-c2ccccc2N1    inactive

Returns: the outcome recorded for O=C(O)Cn1c(=O)ccc2ccccc21 in this assay.
inactive

Returns: the outcome recorded for CCCCCCCCCCCCCCCCN1CCC2SC3CN(CCCCCCCCCCCCCCCC)CCC3SC2C1 (stereo unspecified) in this assay.
inactive

Returns: the outcome recorded for O=C1Oc2cc(O)ccc2C2OCNCC12 (stereo unspecified) in this assay.
inactive

Returns: the outcome recorded for Clc1ccc2c(Cl)ncnc2c1I in this assay.
inactive

Returns: the outcome recorded for N#CCCC(C#N)(CCC#N)c1ccccc1 in this assay.
inactive

Returns: the outcome recorded for N#CC1=C(O)NC(O)=C(C#N)C1c1ccc(Cl)cc1Cl in this assay.
inactive

Returns: the outcome recorded for COc1ccc(Nc2nc3ccccc3nc2C(=O)O)cc1OC in this assay.
inactive

Returns: the outcome recorded for Cc1ccc(-n2c(Cn3nnc(-c4cccnc4)n3)nn(C3OC(COC(=O)c4ccccc4)C(OC(=O)c4ccccc4)C3OC(=O)c3ccccc3)c2=S)cc1C (stereo unspecified) in this assay.
inactive

Returns: the outcome recorded for Cn1cc(NC(=O)c2cc(NC(=O)CCCCCCCCCC(=O)Nc3cc(C(=O)Nc4cc(C(=O)NCCC(=N)N)n(C)c4)n(C)c3)cn2C)cc1C(=O)NCCC(=N)N in this assay.
active

Returns: the outcome recorded for CCOP(=O)(OCC)/C(C#N)=C/c1ncc[nH]1 in this assay.
inactive

Returns: the outcome recorded for N#Cc1cc(Sc2ccc(N)c(C#N)c2)ccc1N in this assay.
inactive

---

Tested on: CEM cells HIV-1 protection, formazan growth assay
experimental protocol: NCI AIDS Antiviral Assay
EC50 values for the compounds below.

Use the examples below as a reference point.
Cc1ccc(S(=O)(=O)NC2CCCCO2)cc1 (configuration not stated)    > 708 µM
CCCC/C=C(/CCCNCCCC)[Si](C)(C)C    > 479 µM
O=c1cnc2c(ccc3ccccc32)[nH]1    > 182 µM

Please give the measured EC50 for this compound: CC(C)CCC[C@@H](C)C1CCC2[C@@H]3CC=C4C[C@@H](OP(=O)(O)OP(=O)(O)O)CC[C@]4(C)C3CC[C@@]21C (some centres not stated)
> 6.17 µM

Please give the measured EC50 for this compound: BrCC[P+](c1ccccc1)(c1ccccc1)c1ccccc1
> 200 µM

Please give the measured EC50 for this compound: COC(=O)C1CCCCCCCCCCC12SCCCS2 (configuration not stated)
> 200 µM

Please give the measured EC50 for this compound: CN(C)c1ccc(/C=C2\CCCCCC2=O)cc1
> 200 µM

Please give the measured EC50 for this compound: CCCCNc1ccc(/C=C2\C=Cc3ccccc32)cc1
> 10 µM

Please give the measured EC50 for this compound: c1cc2c(c(CC3CO3)c1CC1CO1)OCCOCCOCCOCCO2 (configuration not stated)
> 661 µM

Please give the measured EC50 for this compound: Cc1[nH]c2ncn(N)c(=N)c2c1Cc1ccccc1
> 200 µM

Please give the measured EC50 for this compound: Nc1nc(Cl)cc(NCC2(CO)CC(c3ccccc3)C2)n1 (configuration not stated)
> 20 µM

Please give the measured EC50 for this compound: O=C(CCc1cccc(O)c1)NCCCNC(=O)CCc1cccc(O)c1
> 200 µM
